Molecular target: LRRK2 protein (SEQ ID NO:2) (Homo sapiens)
Sequence (Q5S007 whole entry R50H/L212S): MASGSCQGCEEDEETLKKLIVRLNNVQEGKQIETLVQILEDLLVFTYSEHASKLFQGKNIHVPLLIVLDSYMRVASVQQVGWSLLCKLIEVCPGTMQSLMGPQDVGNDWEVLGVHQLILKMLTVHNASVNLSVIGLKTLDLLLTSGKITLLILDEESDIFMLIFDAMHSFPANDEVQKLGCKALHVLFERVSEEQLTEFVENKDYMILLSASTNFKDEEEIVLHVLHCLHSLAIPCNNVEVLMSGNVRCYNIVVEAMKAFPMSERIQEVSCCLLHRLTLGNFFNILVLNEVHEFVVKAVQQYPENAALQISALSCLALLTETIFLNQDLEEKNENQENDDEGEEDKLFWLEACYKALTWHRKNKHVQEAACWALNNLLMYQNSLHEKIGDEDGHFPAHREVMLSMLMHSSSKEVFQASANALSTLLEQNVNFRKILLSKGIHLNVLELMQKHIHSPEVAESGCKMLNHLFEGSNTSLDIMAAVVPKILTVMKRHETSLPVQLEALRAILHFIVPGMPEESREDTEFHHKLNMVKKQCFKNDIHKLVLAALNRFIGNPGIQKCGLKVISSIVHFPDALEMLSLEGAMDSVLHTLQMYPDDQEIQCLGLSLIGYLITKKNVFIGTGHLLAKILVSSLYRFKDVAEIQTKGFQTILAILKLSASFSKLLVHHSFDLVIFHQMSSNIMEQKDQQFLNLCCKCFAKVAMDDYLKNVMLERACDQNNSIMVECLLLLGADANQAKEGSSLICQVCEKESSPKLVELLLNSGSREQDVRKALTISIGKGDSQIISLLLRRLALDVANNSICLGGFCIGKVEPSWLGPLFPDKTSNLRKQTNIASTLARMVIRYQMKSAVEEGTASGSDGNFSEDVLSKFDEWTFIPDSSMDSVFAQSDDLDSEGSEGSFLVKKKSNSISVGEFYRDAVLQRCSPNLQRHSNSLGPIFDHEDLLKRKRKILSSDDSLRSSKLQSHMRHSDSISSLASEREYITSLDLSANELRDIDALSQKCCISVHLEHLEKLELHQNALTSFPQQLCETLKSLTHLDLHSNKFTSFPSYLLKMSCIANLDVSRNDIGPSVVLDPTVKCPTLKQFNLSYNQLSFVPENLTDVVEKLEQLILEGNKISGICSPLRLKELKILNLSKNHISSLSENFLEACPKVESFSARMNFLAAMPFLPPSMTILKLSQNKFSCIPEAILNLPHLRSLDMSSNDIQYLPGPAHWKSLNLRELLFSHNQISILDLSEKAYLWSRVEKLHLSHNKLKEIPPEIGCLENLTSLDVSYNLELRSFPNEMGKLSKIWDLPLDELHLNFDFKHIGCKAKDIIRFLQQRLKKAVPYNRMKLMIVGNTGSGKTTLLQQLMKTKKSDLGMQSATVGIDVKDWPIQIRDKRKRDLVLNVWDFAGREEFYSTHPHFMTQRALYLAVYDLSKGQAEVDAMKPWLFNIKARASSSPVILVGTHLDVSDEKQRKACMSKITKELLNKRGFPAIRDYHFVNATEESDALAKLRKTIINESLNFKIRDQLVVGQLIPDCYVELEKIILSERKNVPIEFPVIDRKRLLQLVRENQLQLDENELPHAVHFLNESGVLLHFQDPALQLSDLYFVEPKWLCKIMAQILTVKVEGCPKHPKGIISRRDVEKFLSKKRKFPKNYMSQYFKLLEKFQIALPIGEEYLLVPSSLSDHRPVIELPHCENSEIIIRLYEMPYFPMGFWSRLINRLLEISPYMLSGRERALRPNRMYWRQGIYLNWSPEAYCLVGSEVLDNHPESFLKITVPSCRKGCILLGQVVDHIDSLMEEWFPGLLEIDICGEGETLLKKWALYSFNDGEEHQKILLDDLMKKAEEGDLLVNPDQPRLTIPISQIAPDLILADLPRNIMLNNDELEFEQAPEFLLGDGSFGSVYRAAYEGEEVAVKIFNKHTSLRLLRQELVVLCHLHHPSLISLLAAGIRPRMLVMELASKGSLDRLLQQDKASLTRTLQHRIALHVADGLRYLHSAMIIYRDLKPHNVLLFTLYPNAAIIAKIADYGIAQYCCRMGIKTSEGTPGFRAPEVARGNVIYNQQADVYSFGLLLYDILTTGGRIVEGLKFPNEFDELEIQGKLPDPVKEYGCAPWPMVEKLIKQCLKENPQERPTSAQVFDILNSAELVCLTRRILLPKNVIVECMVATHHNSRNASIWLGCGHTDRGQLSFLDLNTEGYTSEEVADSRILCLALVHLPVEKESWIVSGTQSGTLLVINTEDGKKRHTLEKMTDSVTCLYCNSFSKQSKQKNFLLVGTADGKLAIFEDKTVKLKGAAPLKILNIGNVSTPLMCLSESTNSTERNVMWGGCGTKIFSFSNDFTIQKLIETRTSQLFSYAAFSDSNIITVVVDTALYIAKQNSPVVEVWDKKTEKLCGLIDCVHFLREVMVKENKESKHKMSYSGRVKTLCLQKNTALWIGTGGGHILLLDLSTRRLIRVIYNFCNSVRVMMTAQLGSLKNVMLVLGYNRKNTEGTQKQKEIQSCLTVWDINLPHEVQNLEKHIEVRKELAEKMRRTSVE
Assay: Drug Pull-Down experiments
Description: The pharmacological properties of the LRRK2 modulating agents can be evaluated, for example, in Drug Pull-Down experiments. The above-mentioned heterocyclic compounds can show activity in Drug Pull-Down experiments at concentrations below 20 μM.
MEASUREMENT_NAME: IC50

Measured IC50 of Cc1[nH]c(/C=C2\C(=O)Nc3ccccc32)c(C)c1CCC(=O)O [Compound 12] : ~1 µM

All figures here come from patent US20100035251A1.
